# method_summary: xn = mol fraction of the nth substance listed, in the solute-free solvent
# setup_conditions: 313.15 K; x2 = 0.2
Field: solubility (g/100 g solution). Provide a value for each of the compounds that follow.
One number for each entry.

Solved cases (6 shown):
compound: Cc1c(Br)c(=O)n(C2CCCC2)c2nc(Cl)ncc12 + CC1=CC(=O)CC(C)(C)C1 + CC(C)O
quantitative_readout: 1.43

compound: Cl.NC(Cc1ccccc1)C(=O)OCc1ccccc1 (stereo not given) + CO + CC(C)=O
quantitative_readout: 0.999

compound: N#CCNC(=O)c1cnccc1C(F)(F)F + CCOC(C)=O + CCO
quantitative_readout: 12

compound: CCOc1ccccc1C(N)=O + CCO + CC#N
quantitative_readout: 12.4

compound: CCOC(=O)OC1=C(c2cc(C)ccc2C)C(=O)NC12CCC(OC)CC2 (stereo not given) + CO + O
quantitative_readout: 0.0833

compound: CCOC(=O)OC1=C(c2cc(C)ccc2C)C(=O)NC12CCC(OC)CC2 (stereo not given) + CCO + O
quantitative_readout: 1.33

Please give solubility (g/100 g solution), item by item, for the list that follows.
1. Cc1c(Br)c(=O)n(C2CCCC2)c2nc(Cl)ncc12 + C1CCOC1 + CCO
2. CCOc1ccccc1C(N)=O + CO + CC#N
3. Cc1c(Br)c(=O)n(C2CCCC2)c2nc(Cl)ncc12 + CCOC(C)=O + CCO

A:
1. 3.52
2. 13.5
3. 0.746

---

# method_summary: xn = mol fraction of the nth substance listed, in the solute-free solvent
# setup_conditions: 303.15 K; x2 = 0.5
readout_type: solubility (g/100 g solution)
Numbers only.

compound: CCOc1ccccc1C(N)=O + CCO + CC#N
solubility (g/100 g solution): 10.4
--
compound: O=C(NC(C(=O)O)c1ccccc1)OCc1ccccc1 (stereo unspecified) + CCO + O
solubility (g/100 g solution): 12.3
--
compound: Cc1ncc(CO)c(CO)c1O.Cl + O + CC#N
solubility (g/100 g solution): 6.6
--
compound: CCOc1ccccc1C(N)=O + CO + CC#N
solubility (g/100 g solution): 12.8
--
compound: Cc1ncc(CO)c(CO)c1O.Cl + O + CCCO
solubility (g/100 g solution): 5.68

Q: // lookup solubility (g/100 g solution) for Cc1c(Br)c(=O)n(C2CCCC2)c2nc(Cl)ncc12 + C1CCOC1 + CCO
A: 5.29

---

# method_summary: xn = mol fraction of the nth substance listed, in the solute-free solvent
# setup_conditions: 318.15 K; x2 = 0.6
Tick 1 (yes) if solubility (g/100 g solution) is 10 or greater. Tick 0 (no) if solubility (g/100 g solution) is less than 10.

Worked set:
molecule: CCOC(=O)OC1=C(c2cc(C)ccc2C)C(=O)NC12CCC(OC)CC2 (stereo unspecified) + CC(C)O + O
label_class: 1 (yes)

molecule: CCOc1ccccc1C(N)=O + CCO + CC#N
label_class: 1 (yes)

molecule: CCOC(=O)OC1=C(c2cc(C)ccc2C)C(=O)NC12CCC(OC)CC2 (stereo unspecified) + CCO + O
label_class: 1 (yes)

molecule: Cc1c(Br)c(=O)n(C2CCCC2)c2nc(Cl)ncc12 + CC1=CC(=O)CC(C)(C)C1 + CC(C)O
label_class: 0 (no)

molecule: Cc1c(Br)c(=O)n(C2CCCC2)c2nc(Cl)ncc12 + CCOC(C)=O + CCO
label_class: 0 (no)

molecule: CCOc1ccccc1C(N)=O + CO + CC#N
label_class: 1 (yes)

molecule: CCOc1ccccc1C(N)=O + CC#N + CC(C)O
label_class: 1 (yes)

molecule: CCOC(=O)OC1=C(c2cc(C)ccc2C)C(=O)NC12CCC(OC)CC2 (stereo unspecified) + CC(C)=O + O
label_class: 1 (yes)

Q: Could you please find out whether Cc1c(Br)c(=O)n(C2CCCC2)c2nc(Cl)ncc12 + C1CCOC1 + CCO has solubility (g/100 g solution) that meets 10 or exceeds it?
A: 0 (no)

Q: What do you have for N#CCNC(=O)c1cnccc1C(F)(F)F + CCOC(C)=O + CCO ?
A: 1 (yes)
